assay: In-vivo pharmacokinetic study in rats; set-up: species or system SD female rats; conditions: female, SD, rat, plasma, po, intragastric administration, 5 mg/kg, read-out: AUC0-24h
endpoint-label: AUC(0-t) (ng·h/mL)
Note: unit ng·h/mL is implicit; provide only the numeric part.

For COc1ccc2ccoc2c1S(=O)(=O)Nc1noc2cc(Cn3cccn3)nc(OC)c12 the compound record lists AUC(0-t) as 72300

For COc1cc2cccnc2cc1S(=O)(=O)Nc1noc2cc(Cn3cccn3)nc(OC)c12 the compound record lists AUC(0-t) as 30600

For COc1cc2c(cc1S(=O)(=O)Nc1noc3cc(Cn4cccn4)nc(OC)c13)OCC2 the compound record lists AUC(0-t) as 166000

For COc1cc2c(c(OC)c1S(=O)(=O)Nc1noc3cc(Cn4cccn4)nc(OC)c13)CCC2 the compound record lists AUC(0-t) as 356000

For COc1ccc2cccnc2c1S(=O)(=O)Nc1noc2cc(Cn3cccn3)nc(OC)c12 the compound record lists AUC(0-t) as 32000

For COc1cc2c(cc1S(=O)(=O)Nc1noc3cc(Cn4cccn4)nc(OC)c13)CCCC2 the compound record lists AUC(0-t) as 64800

For COc1nc(Cn2cccn2)cc2onc(NS(=O)(=O)c3cccc4c3ccn4C)c12 the compound record lists AUC(0-t) as 502000

----------
Parameter inhibition at 5 min, 10 µM: see the listing below.
system: CYP3A; test: Inhibitory effect on P450 enzymes in vitro (human liver microsomes), CYP3A; format: in vitro ADME; conditions: probe midazolam, final concentration 10 µM, substrate midazolam, read-out: % inhibition rate CYP3A (midazolam)
Note: unit % is implicit; provide only the numeric part.

The examples below pair each entry with its known result.
COc1ccc2ccoc2c1S(=O)(=O)Nc1noc2cc(Cn3cccn3)nc(OC)c12 [Example 10]; -4.28
COc1cc2c(cc1S(=O)(=O)Nc1noc3cc(Cn4cccn4)nc(OC)c13)OCC2 [Example 59]; -12.1

Then this compound:
For COc1cc2c(cc1S(=O)(=O)Nc1noc3cc(Cn4cccn4)nc(OC)c13)CCCC2 [Example 2] the compound record lists inhibition at 5 min, 10 µM as -5.22

----------
test: In-vivo pharmacokinetic study in rats; parameters: species or system SD female rats; conditions: rat, plasma, po, intragastric administration, 5 mg/kg, read-out: AUC0-24h
endpoint-label: AUC(0-t) at 24 h (µg·h/mL)
Note: unit µg·h/mL is implicit; provide only the numeric part.

For COc1cc2c(cc1S(=O)(=O)Nc1noc3cc(Cn4cccn4)nc(OC)c13)CCCO2 the compound record lists AUC(0-t) at 24 h as 158

----------
Parameter AUC(0-inf): see the listing below.
experiment: In-vivo pharmacokinetic study in beagle dogs; design: species or system male beagle dogs; details: male, dog, plasma, po, intragastric administration, 1 mg/kg
Note: unit ng·h/mL is implicit; provide only the numeric part.

The examples below pair each entry with its known result.
COc1cc2c(cc1S(=O)(=O)Nc1noc3cc(Cn4cccn4)nc(OC)c13)OCC2 [Example 59]; 55900
COc1ccc2c(c1S(=O)(=O)Nc1noc3cc(Cn4cccn4)nc(OC)c13)OCC2 [Example 9]; 122000

Then this compound:
For COc1ccc2ccoc2c1S(=O)(=O)Nc1noc2cc(Cn3cccn3)nc(OC)c12 [Example 10] the compound record lists AUC(0-inf) as 47500

----------
test: In-vivo pharmacokinetic study in rats; parameters: species or system SD female rats; settings: rat, plasma, po, intragastric administration, 5 mg/kg
endpoint-label: Cmax (ng/mL)
Note: unit ng/mL is implicit; provide only the numeric part.

For COc1cc2c(cc1S(=O)(=O)Nc1noc3cc(Cn4cccn4)nc(OC)c13)CCCO2 [Example 76] the molecule record lists Cmax as 14400

----------
Experiment: Assay for plasma protein binding rate (equilibrium dialysis), dog plasma
Type: in vitro ADME
Conditions: dialysis 6 h at 37 °C, read-out: Dog (Fu%)
Method: […] An internal standard method was used, and the plasma protein binding rate, recovery rate, and residual percentage were calculated by using Excel according to the ratio of the peak area of the sample to the peak area of the internal standard. […]
endpoint-label: fraction unbound at 6 h, 1 µM
Reply with just the number.

The examples below pair each entry with its known result.
COc1cc2c(cc1S(=O)(=O)Nc1noc3cc(Cn4cccn4)nc(OC)c13)CCCO2 [Example 76]; 0.0065
COc1cc2c(cc1S(=O)(=O)Nc1noc3cc(Cn4cccn4)nc(OC)c13)OCC2 [Example 59]; 0.0143
COc1cc2ccoc2cc1S(=O)(=O)Nc1noc2cc(Cn3cccn3)nc(OC)c12 [Example 44]; 0.0023
COc1ccc2c(c1S(=O)(=O)Nc1noc3cc(Cn4cccn4)nc(OC)c13)OCC2 [Example 9]; 0.025

For COc1cc2c(cc1S(=O)(=O)Nc1noc3cc(Cn4cccn4)nc(OC)c13)CCO2 [Example 60] the compound record lists fraction unbound at 6 h, 1 µM as 0.0345

For COc1cc2c(cc1S(=O)(=O)Nc1noc3cc(Cn4cccn4)nc(OC)c13)CCCC2 [Example 2] the compound record lists fraction unbound at 6 h, 1 µM as 0.0013

For COc1ccc2ccoc2c1S(=O)(=O)Nc1noc2cc(Cn3cccn3)nc(OC)c12 [Example 10] the compound record lists fraction unbound at 6 h, 1 µM as 0.0145

----------
A set of compounds tested on KAT6A (Homo sapiens, UniProt Q92794), with measured pIC50:
Scale: pIC50 equals -log10([C]), with [C] in mol/L.

COc1nc(Cn2cccn2)cc2onc(NS(=O)(=O)c3cccc4c3OC(F)(F)O4)c12; 7.74
[2H]C([2H])(c1cc2onc(NS(=O)(=O)c3cc4c(cc3OC)CCO4)c2c(OC)n1)n1cccn1; 8.75
COc1nc(Cn2cccn2)cc2onc(NS(=O)(=O)c3cccc4c3OCCO4)c12; 8.82
COc1nc(Cn2cccn2)cc2onc(NS(=O)(=O)c3cc(C#N)cc4c3OCCC4)c12; 8.23
COc1ccc2occc2c1S(=O)(=O)Nc1noc2cc(Cn3cccn3)nc(OC)c12; 8.02

Readout pIC50 for COc1cc2c(cc1S(=O)(=O)Nc1noc3cc(Cn4cccn4)nc(OC)c13)OCC2 , test system KAT6A (Homo sapiens, UniProt Q92794), was 9.02

Readout pIC50 for COc1cc2c(ccn2C)cc1S(=O)(=O)Nc1noc2cc(Cn3cccn3)nc(OC)c12 , test system KAT6A (Homo sapiens, UniProt Q92794), was 9.06

Readout pIC50 for COc1ccc2cccnc2c1S(=O)(=O)Nc1noc2cc(Cn3cccn3)nc(OC)c12 , test system KAT6A (Homo sapiens, UniProt Q92794), was 9.11

----------
Parameter viability at 0.001 µM: see the listing below.
tested on: human breast cancer cell line ZR-75-1; assay: Assay for cell growth inhibitory activity (3D hydrogel culture, CCK-8); format: cell-based; settings: ZR-75-1, 1 nM, 96 h, read-out: Cell survival rate at example drug concentration 1 nM
Note: unit % is implicit; provide only the numeric part.

The examples below pair each entry with its known result.
COc1ccc2ccoc2c1S(=O)(=O)Nc1noc2cc(Cn3cccn3)nc(OC)c12; 45
COc1ccc2c(c1S(=O)(=O)Nc1noc3cc(Cn4cccn4)nc(OC)c13)CCCC2; 55

Readout viability at 0.001 µM for COc1nc(Cn2cccn2)cc2onc(NS(=O)(=O)c3cccc4ccoc34)c12 , test system human breast cancer cell line ZR-75-1, was 85

Readout viability at 0.001 µM for COc1nc(Cn2cccn2)cc2onc(NS(=O)(=O)c3cccc4c3OCC4)c12 , test system human breast cancer cell line ZR-75-1, was 80

Readout viability at 0.001 µM for COc1nc(Cn2cccn2)cc2onc(NS(=O)(=O)c3cccc4c3ccn4C)c12 , test system human breast cancer cell line ZR-75-1, was 66

Readout viability at 0.001 µM for COc1ccc2c(c1S(=O)(=O)Nc1noc3cc(Cn4cccn4)nc(OC)c13)OCC2 , test system human breast cancer cell line ZR-75-1, was 48

Readout viability at 0.001 µM for COc1cc2c(cc1S(=O)(=O)Nc1noc3cc(Cn4cccn4)nc(OC)c13)CCCC2 , test system human breast cancer cell line ZR-75-1, was 51

Readout viability at 0.001 µM for COc1nc(Cn2cccn2)cc2onc(NS(=O)(=O)c3cccc4c3OCCO4)c12 , test system human breast cancer cell line ZR-75-1, was 61

----------
A set of compounds tested on KAT6A (Homo sapiens), with measured pIC50:
Scale: pIC50 equals -log10([C]), with [C] in mol/L.

The examples below pair each entry with its known result.
COc1cc2cccnc2cc1S(=O)(=O)Nc1noc2cc(Cn3cccn3)nc(OC)c12 [Example 75]; 8.62
COc1cc2c(c(S(=O)(=O)Nc3noc4cc(Cn5cccn5)nc(OC)c34)c1)OC(C)(C)CC2 [Example 99]; 8.55
COc1nc(Cn2cccn2)cc2onc(NS(=O)(=O)c3cccc4c3OCO4)c12 [Example 28]; 8.45
COc1cc2c(c(S(=O)(=O)Nc3noc4cc(Cn5cccn5)nc(OC)c34)c1)OCCC2 [Example 84]; 8.92
COc1ccc2c(c1S(=O)(=O)Nc1noc3cc(Cn4cccn4)nc(OC)c13)OC(C)(C)C2 [Example 100]; 8.97

For COc1ccc2c(c1S(=O)(=O)Nc1noc3cc(Cn4cccn4)nc(OC)c13)OCO2 [Example 58] the compound record lists pIC50 as 9.18

For COc1cc2c(cc1S(=O)(=O)Nc1noc3cc(Cn4cccn4)nc(OC)c13)CCO2 [Example 60] the compound record lists pIC50 as 9.00

For COc1ccc(S(=O)(=O)Nc2noc3cc(Cn4cccn4)nc(OC)c23)c2c1C=CCO2 [Example 94] the compound record lists pIC50 as 8.63
